Quick reference: viability, T/C of the listed items.
System: NCI-H719 tumor spheroids, viability
TEST DETAILS: Anticancer human tumor NCI-H719 cell line growth inhibition;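 further: spheroids exposed to compounds for seven days; percent viability relative to DMSO vehicle control as 100%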
EXPERIMENTAL CONTEXT: second compound 10 µM; first compound 0.3 µM; hits give low values; spheroids with HUVEC and MSC

| COMPOUND | viability, T/C [%] |
| --- | --- |
| CNCc1ccc(-c2cc(-c3nc(-c4ccc(S(=O)(=O)C(C)C)cc4)cnc3N)on2)cc1 + Cn1nnc2c(C(N)=O)ncn2c1=O | 15 |
| Cn1ncnc1[C@H]1c2n[nH]c(=O)c3cc(F)cc(c23)N[C@@H]1c1ccc(F)cc1 + Cn1nnc2c(C(N)=O)ncn2c1=O | 6.29 |
| O=C(c1cc(Cc2n[nH]c(=O)c3ccccc23)ccc1F)N1CCN(C(=O)C2CC2)CC1 + Cn1nnc2c(C(N)=O)ncn2c1=O | 66.7 |
| Cc1sc2c(c1C)C(c1ccc(Cl)cc1)=NC(CC(=O)Nc1ccc(O)cc1)c1nnc(C)n1-2 (centres undefined) + Cn1nnc2c(C(N)=O)ncn2c1=O | 39.8 |
